Please respond with reported chromatographic logD for every item in the list.
# measurement description: Octanol-water partition coefficient, effective log D of the compound at pH 7.4 by chromatographic analysis
# Assay type: physicochemical

GET /values?readout=chromatographic logD&item= CCOC(=O)C1=C(N)Oc2cc(O)ccc2C1c1cccnc1 (centres undefined) 2.99

GET /values?readout=chromatographic logD&item= CCOC(=O)C1=C(NC(C)=O)Oc2cc(O)ccc2C1c1cccnc1 (centres undefined) 3.16

GET /values?readout=chromatographic logD&item= CCOC(=O)C1=C(NC(C)=O)Oc2cc(O)ccc2C1c1cnc2ccccc2c1 (centres undefined) 4.05

GET /values?readout=chromatographic logD&item= CCOC(=O)C1=C(N)Oc2cc(O)ccc2C1c1cnc2ccccc2c1 (centres undefined) 3.88

// provenance: ChEMBL document CHEMBL3124862
